- Tested on: 556581-035-R-J1-PDC complex spheroid growth
- experimentalDetails: Anticancer human tumor 556581-035-R-J1-PDC patient-derived ovarian carcinoma cell line growth inhibition [AhR]
- conditions: second compound 10 µM; first compound 3.16 µM; hits give low values
- Excerpt: Multicellular complex tumor spheroid response to aryl hydrocarbon receptor antagonists in combination with a variety of drugs and investigational agents in selected tumor cell lines […] Compounds. […] If the clinical Cmax for an agent had not been determined, the highest concentration tested was 10 microM (Table 1). […]
Labelling field: enter Condition met if recorded viability, T/C is less than 50%. Enter Condition not met if it equals or exceeds that cut-off.

compound | answerLabel
CC1COCCN1c1cc(C2(S(C)(=N)=O)CC2)nc(-c2ccnc3[nH]ccc23)n1 (centres undefined) + CC(CO)NC(=O)c1cc(-c2ccc(Cl)cc2)nn(-c2cnn(C)c2)c1=O | Condition not met
Nc1ccccc1NC(=O)c1ccc(CNC(=O)OCc2cccnc2)cc1 + CC(CO)NC(=O)c1cc(-c2ccc(Cl)cc2)nn(-c2cnn(C)c2)c1=O | Condition met
CC(C)c1c(-c2ccccc2)nc2c(C#N)c[nH]n2c1=O + Cc1ccccc1N=Nc1ccc(NC(=O)c2ccnn2C)c(C)c1 | Condition not met
O=C(c1cc(Cc2n[nH]c(=O)c3ccccc23)ccc1F)N1CCN(C(=O)C2CC2)CC1 + CC(CO)NC(=O)c1cc(-c2ccc(Cl)cc2)nn(-c2cnn(C)c2)c1=O | Condition not met
NS(=O)(=O)OCC1CC(n2ccc3c(NC4CCc5ccccc54)ncnc32)CC1O (centres undefined) + CC(CO)NC(=O)c1cc(-c2ccc(Cl)cc2)nn(-c2cnn(C)c2)c1=O | Condition not met
Nc1ccn(C2OC(CO)C(O)C2(F)F)c(=O)n1 (centres undefined) + Cc1ccccc1N=Nc1ccc(NC(=O)c2ccnn2C)c(C)c1 | Condition met
CC1(C)CCC(CN2CCN(c3ccc(C(=O)NS(=O)(=O)c4ccc(NCC5CCOCC5)c([N+](=O)[O-])c4)c(Oc4cnc5[nH]ccc5c4)c3)CC2)=C(c2ccc(Cl)cc2)C1 + Cc1ccccc1N=Nc1ccc(NC(=O)c2ccnn2C)c(C)c1 | Condition not met
Nc1ccccc1NC(=O)c1ccc(CNC(=O)OCc2cccnc2)cc1 + Cc1ccccc1N=Nc1ccc(NC(=O)c2ccnn2C)c(C)c1 | Condition not met
Nc1ccccc1NC(=O)c1ccc(CNC(=O)OCc2cccnc2)cc1 + Cc1cncc(-c2nc(NCCc3c[nH]c4ccccc34)c3ncn(C(C)C)c3n2)c1 | Condition met
COc1cc(Nc2ncc3c(n2)-c2ccc(Cl)cc2C(c2c(F)cccc2OC)=NC3)ccc1C(=O)O + Cc1cncc(-c2nc(NCCc3c[nH]c4ccccc34)c3ncn(C(C)C)c3n2)c1 | Condition not met
O=C(C=Cc1cccc(S(=O)(=O)Nc2ccccc2)c1)NO + CC(CO)NC(=O)c1cc(-c2ccc(Cl)cc2)nn(-c2cnn(C)c2)c1=O | Condition met
COc1ccc([C@@H](O)c2cc(-c3ncnc4cc(N5CCOCC5)ccc34)c(F)cc2Cl)nn1 + Cc1cncc(-c2nc(NCCc3c[nH]c4ccccc34)c3ncn(C(C)C)c3n2)c1 | Condition not met
O=C(C=Cc1cccc(S(=O)(=O)Nc2ccccc2)c1)NO + Cc1ccccc1N=Nc1ccc(NC(=O)c2ccnn2C)c(C)c1 | Condition met
CC1COCCN1c1cc(C2(S(C)(=N)=O)CC2)nc(-c2ccnc3[nH]ccc23)n1 (centres undefined) + Cc1cncc(-c2nc(NCCc3c[nH]c4ccccc34)c3ncn(C(C)C)c3n2)c1 | Condition not met
Nc1ccn(C2OC(CO)C(O)C2(F)F)c(=O)n1 (centres undefined) + CC(CO)NC(=O)c1cc(-c2ccc(Cl)cc2)nn(-c2cnn(C)c2)c1=O | Condition met
COc1ccc([C@@H](O)c2cc(-c3ncnc4cc(N5CCOCC5)ccc34)c(F)cc2Cl)nn1 + CC(CO)NC(=O)c1cc(-c2ccc(Cl)cc2)nn(-c2cnn(C)c2)c1=O | Condition not met
O=C(C=Cc1cccc(S(=O)(=O)Nc2ccccc2)c1)NO + Cc1cncc(-c2nc(NCCc3c[nH]c4ccccc34)c3ncn(C(C)C)c3n2)c1 | Condition met
COc1cc(Nc2ncc3c(n2)-c2ccc(Cl)cc2C(c2c(F)cccc2OC)=NC3)ccc1C(=O)O + CC(CO)NC(=O)c1cc(-c2ccc(Cl)cc2)nn(-c2cnn(C)c2)c1=O | Condition not met
COc1cc(C2c3cc4c(cc3C(OC3OC5COC(C)OC5C(O)C3O)C3COC(=O)C23)OCO4)cc(OC)c1O (centres undefined) + Cc1cncc(-c2nc(NCCc3c[nH]c4ccccc34)c3ncn(C(C)C)c3n2)c1 | Condition not met
CC(C)c1c(-c2ccccc2)nc2c(C#N)c[nH]n2c1=O + CC(CO)NC(=O)c1cc(-c2ccc(Cl)cc2)nn(-c2cnn(C)c2)c1=O | Condition not met
Nc1ccn(C2OC(CO)C(O)C2(F)F)c(=O)n1 (centres undefined) + Cc1cncc(-c2nc(NCCc3c[nH]c4ccccc34)c3ncn(C(C)C)c3n2)c1 | Condition met
NS(=O)(=O)OCC1CC(n2ccc3c(NC4CCc5ccccc54)ncnc32)CC1O (centres undefined) + Cc1cncc(-c2nc(NCCc3c[nH]c4ccccc34)c3ncn(C(C)C)c3n2)c1 | Condition met
CC(C)c1c(-c2ccccc2)nc2c(C#N)c[nH]n2c1=O + Cc1cncc(-c2nc(NCCc3c[nH]c4ccccc34)c3ncn(C(C)C)c3n2)c1 | Condition not met

---

- Tested on: 556581-035-R-J1-PDC complex spheroid growth
- experimentalDetails: Anticancer human tumor 556581-035-R-J1-PDC cell line growth inhibition [AhR];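 note: compound exposure lasted 7 days; 100% = DMSO vehicle control growth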
- conditions: second compound 0.1 µM; first compound 0.1 µM; hits give low values

molecule | viability, T/C
CC1COCCN1c1cc(-c2ccnn2C)c2ccnc(-c3ccn[nH]3)c2n1 (stereo unspecified) + Cc1cncc(-c2nc(NCCc3c[nH]c4ccccc34)c3ncn(C(C)C)c3n2)c1 | 82.2%
COc1ccc([C@@H](O)c2cc(-c3ncnc4cc(N5CCOCC5)ccc34)c(F)cc2Cl)nn1 + Cc1ccccc1N=Nc1ccc(NC(=O)c2ccnn2C)c(C)c1 | 104%
O=C(c1cc(Cc2n[nH]c(=O)c3ccccc23)ccc1F)N1CCN(C(=O)C2CC2)CC1 + CC(CO)NC(=O)c1cc(-c2ccc(Cl)cc2)nn(-c2cnn(C)c2)c1=O | 94.6%
CC[C@@]1(O)C(=O)OCc2c1cc1n(c2=O)Cc2cc3c(CN(C)C)c(O)ccc3nc2-1 + Cc1cncc(-c2nc(NCCc3c[nH]c4ccccc34)c3ncn(C(C)C)c3n2)c1 | 64.3%
Nc1ncn(C2CC(O)C(CO)O2)c(=O)n1 (stereo unspecified) + Cc1ccccc1N=Nc1ccc(NC(=O)c2ccnn2C)c(C)c1 | 84.7%
NS(=O)(=O)OCC1CC(n2ccc3c(NC4CCc5ccccc54)ncnc32)CC1O (stereo unspecified) + CC(CO)NC(=O)c1cc(-c2ccc(Cl)cc2)nn(-c2cnn(C)c2)c1=O | 108%

---

- Test system: 556581-035-R-J1-PDC complex spheroid growth
- experimentalDetails: Anticancer human tumor 556581-035-R-J1-PDC cell line growth inhibition [AhR];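 note: compound exposure lasted 7 days; 100% = DMSO vehicle control growth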
- conditions: second compound 0.316 µM; first compound 3.16 µM; hits give low values
Measured viability, T/C accompanies every entry in the list below.

molecule | viability, T/C (%)
COc1cc(C2c3cc4c(cc3C(OC3OC5COC(C)OC5C(O)C3O)C3COC(=O)C23)OCO4)cc(OC)c1O (centres undefined) + Cc1cncc(-c2nc(NCCc3c[nH]c4ccccc34)c3ncn(C(C)C)c3n2)c1 | 65.3
CC1(C)CCC(CN2CCN(c3ccc(C(=O)NS(=O)(=O)c4ccc(NCC5CCOCC5)c([N+](=O)[O-])c4)c(Oc4cnc5[nH]ccc5c4)c3)CC2)=C(c2ccc(Cl)cc2)C1 + CC(CO)NC(=O)c1cc(-c2ccc(Cl)cc2)nn(-c2cnn(C)c2)c1=O | 98.6
CC(C)c1c(-c2ccccc2)nc2c(C#N)c[nH]n2c1=O + CC(CO)NC(=O)c1cc(-c2ccc(Cl)cc2)nn(-c2cnn(C)c2)c1=O | 106
COc1cc(Nc2ncc3c(n2)-c2ccc(Cl)cc2C(c2c(F)cccc2OC)=NC3)ccc1C(=O)O + CC(CO)NC(=O)c1cc(-c2ccc(Cl)cc2)nn(-c2cnn(C)c2)c1=O | 55.2

---

- Tested on: 556581-035-R-J1-PDC complex spheroid growth
- experimentalDetails: Anticancer human tumor 556581-035-R-J1-PDC cell line growth inhibition [AhR]; active = viability on the fitted dose curve at most 10% of control; inactive = the rest;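 note: compound exposure lasted 7 days; 100% = DMSO vehicle control growth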
- conditions: second compound 1 µM; first compound 10 µM
Outcomes: active, inactive

compound | systemUnderTest | answerLabel
NS(=O)(=O)OCC1CC(n2ccc3c(NC4CCc5ccccc54)ncnc32)CC1O (centres undefined) + Cc1ccccc1N=Nc1ccc(NC(=O)c2ccnn2C)c(C)c1 | 556581-035-R-J1-PDC complex spheroid growth | inactive
COc1cc(C2c3cc4c(cc3C(OC3OC5COC(C)OC5C(O)C3O)C3COC(=O)C23)OCO4)cc(OC)c1O (centres undefined) + Cc1cncc(-c2nc(NCCc3c[nH]c4ccccc34)c3ncn(C(C)C)c3n2)c1 | 556581-035-R-J1-PDC complex spheroid growth | inactive
Nc1ccn(C2OC(CO)C(O)C2(F)F)c(=O)n1 (centres undefined) + Cc1cncc(-c2nc(NCCc3c[nH]c4ccccc34)c3ncn(C(C)C)c3n2)c1 | 556581-035-R-J1-PDC complex spheroid growth | inactive
O=C(C=Cc1cccc(S(=O)(=O)Nc2ccccc2)c1)NO + Cc1cncc(-c2nc(NCCc3c[nH]c4ccccc34)c3ncn(C(C)C)c3n2)c1 | 556581-035-R-J1-PDC complex spheroid growth | active
COc1cc(Nc2ncc3c(n2)-c2ccc(Cl)cc2C(c2c(F)cccc2OC)=NC3)ccc1C(=O)O + Cc1ccccc1N=Nc1ccc(NC(=O)c2ccnn2C)c(C)c1 | 556581-035-R-J1-PDC complex spheroid growth | inactive
O=C(C=Cc1cccc(S(=O)(=O)Nc2ccccc2)c1)NO + CC(CO)NC(=O)c1cc(-c2ccc(Cl)cc2)nn(-c2cnn(C)c2)c1=O | 556581-035-R-J1-PDC complex spheroid growth | active
CC1COCCN1c1cc(C2(S(C)(=N)=O)CC2)nc(-c2ccnc3[nH]ccc23)n1 (centres undefined) + CC(CO)NC(=O)c1cc(-c2ccc(Cl)cc2)nn(-c2cnn(C)c2)c1=O | 556581-035-R-J1-PDC complex spheroid growth | inactive
NS(=O)(=O)OCC1CC(n2ccc3c(NC4CCc5ccccc54)ncnc32)CC1O (centres undefined) + Cc1cncc(-c2nc(NCCc3c[nH]c4ccccc34)c3ncn(C(C)C)c3n2)c1 | 556581-035-R-J1-PDC complex spheroid growth | inactive
Nc1ccccc1NC(=O)c1ccc(CNC(=O)OCc2cccnc2)cc1 + Cc1ccccc1N=Nc1ccc(NC(=O)c2ccnn2C)c(C)c1 | 556581-035-R-J1-PDC complex spheroid growth | inactive
O=C(C=Cc1cccc(S(=O)(=O)Nc2ccccc2)c1)NO + Cc1ccccc1N=Nc1ccc(NC(=O)c2ccnn2C)c(C)c1 | 556581-035-R-J1-PDC complex spheroid growth | active
COc1ccc([C@@H](O)c2cc(-c3ncnc4cc(N5CCOCC5)ccc34)c(F)cc2Cl)nn1 + CC(CO)NC(=O)c1cc(-c2ccc(Cl)cc2)nn(-c2cnn(C)c2)c1=O | 556581-035-R-J1-PDC complex spheroid growth | inactive
Nc1ccccc1NC(=O)c1ccc(CNC(=O)OCc2cccnc2)cc1 + Cc1cncc(-c2nc(NCCc3c[nH]c4ccccc34)c3ncn(C(C)C)c3n2)c1 | 556581-035-R-J1-PDC complex spheroid growth | inactive
CC1(C)CCC(CN2CCN(c3ccc(C(=O)NS(=O)(=O)c4ccc(NCC5CCOCC5)c([N+](=O)[O-])c4)c(Oc4cnc5[nH]ccc5c4)c3)CC2)=C(c2ccc(Cl)cc2)C1 + Cc1ccccc1N=Nc1ccc(NC(=O)c2ccnn2C)c(C)c1 | 556581-035-R-J1-PDC complex spheroid growth | inactive
Nc1ccccc1NC(=O)c1ccc(CNC(=O)OCc2cccnc2)cc1 + CC(CO)NC(=O)c1cc(-c2ccc(Cl)cc2)nn(-c2cnn(C)c2)c1=O | 556581-035-R-J1-PDC complex spheroid growth | inactive
COc1cc(C2c3cc4c(cc3C(OC3OC5COC(C)OC5C(O)C3O)C3COC(=O)C23)OCO4)cc(OC)c1O (centres undefined) + CC(CO)NC(=O)c1cc(-c2ccc(Cl)cc2)nn(-c2cnn(C)c2)c1=O | 556581-035-R-J1-PDC complex spheroid growth | inactive
COc1cccc2c1C(=O)c1c(O)c3c(c(O)c1C2=O)CC(O)(C(=O)CO)CC3OC1CC(N)C(O)C(C)O1 (centres undefined) + CC(CO)NC(=O)c1cc(-c2ccc(Cl)cc2)nn(-c2cnn(C)c2)c1=O | 556581-035-R-J1-PDC complex spheroid growth | active
Nc1ccn(C2OC(CO)C(O)C2(F)F)c(=O)n1 (centres undefined) + Cc1ccccc1N=Nc1ccc(NC(=O)c2ccnn2C)c(C)c1 | 556581-035-R-J1-PDC complex spheroid growth | inactive
COc1cc(Nc2ncc3c(n2)-c2ccc(Cl)cc2C(c2c(F)cccc2OC)=NC3)ccc1C(=O)O + CC(CO)NC(=O)c1cc(-c2ccc(Cl)cc2)nn(-c2cnn(C)c2)c1=O | 556581-035-R-J1-PDC complex spheroid growth | inactive
CC(C)c1c(-c2ccccc2)nc2c(C#N)c[nH]n2c1=O + Cc1ccccc1N=Nc1ccc(NC(=O)c2ccnn2C)c(C)c1 | 556581-035-R-J1-PDC complex spheroid growth | inactive
CC1COCCN1c1cc(C2(S(C)(=N)=O)CC2)nc(-c2ccnc3[nH]ccc23)n1 (centres undefined) + Cc1cncc(-c2nc(NCCc3c[nH]c4ccccc34)c3ncn(C(C)C)c3n2)c1 | 556581-035-R-J1-PDC complex spheroid growth | inactive
CC1COCCN1c1cc(C2(S(C)(=N)=O)CC2)nc(-c2ccnc3[nH]ccc23)n1 (centres undefined) + Cc1ccccc1N=Nc1ccc(NC(=O)c2ccnn2C)c(C)c1 | 556581-035-R-J1-PDC complex spheroid growth | inactive
NS(=O)(=O)OCC1CC(n2ccc3c(NC4CCc5ccccc54)ncnc32)CC1O (centres undefined) + CC(CO)NC(=O)c1cc(-c2ccc(Cl)cc2)nn(-c2cnn(C)c2)c1=O | 556581-035-R-J1-PDC complex spheroid growth | inactive
Nc1ccn(C2OC(CO)C(O)C2(F)F)c(=O)n1 (centres undefined) + CC(CO)NC(=O)c1cc(-c2ccc(Cl)cc2)nn(-c2cnn(C)c2)c1=O | 556581-035-R-J1-PDC complex spheroid growth | inactive
COc1cc(C2c3cc4c(cc3C(OC3OC5COC(C)OC5C(O)C3O)C3COC(=O)C23)OCO4)cc(OC)c1O (centres undefined) + Cc1ccccc1N=Nc1ccc(NC(=O)c2ccnn2C)c(C)c1 | 556581-035-R-J1-PDC complex spheroid growth | inactive
